# RUN DESCRIPTION: NCI Yeast Anticancer Drug Screen. Data for the sgs1 mgt1 strain (AID 161)
# PARTICULARS: S. cerevisiae sgs1 mgt1 strain, at 50.0 µM, hits give high values
This is part of a sample that, as a whole, favours compounds with a hit. Of some 79,000 tested, about 15% had one in any assay.
Is growth inhibition at least 90%? Then fulfilled. If not, not fulfilled.

Study these solved cases before continuing.
[
  {
    "COMPOUND": "CC(NC(=O)C(Cc1ccccc1)NC(=O)c1ccc[n+](Cc2ccccc2)c1)C(N)=O (stereo not given)",
    "CLASS": "not fulfilled"
  },
  {
    "COMPOUND": "O=[N+]([O-])c1cccc2nc3ccccc3c(NCCNCCO)c12",
    "CLASS": "not fulfilled"
  },
  {
    "COMPOUND": "CCCCCCCCCCCCCCCCN1CCSCC1",
    "CLASS": "fulfilled"
  },
  {
    "COMPOUND": "COC(=O)C1=C(C)NC(C)=C(C(=O)OC)C1c1ccc(/[N+]([O-])=C/c2ccccc2)cc1",
    "CLASS": "fulfilled"
  },
  {
    "COMPOUND": "O=C1CCSC(=S)N1c1ccccc1C(F)(F)F",
    "CLASS": "fulfilled"
  },
  {
    "COMPOUND": "CC(=O)O[C@@H]1c2c(c3c(=O)c4cccc(O)c4c(=O)c=3c2=[N+]=[N-])[C@H](OC(C)=O)[C@@H](OC(C)=O)[C@]1(C)O",
    "CLASS": "fulfilled"
  },
  {
    "COMPOUND": "c1ccc2c(c1)CCCc1cc3ccccc3nc1-2",
    "CLASS": "fulfilled"
  },
  {
    "COMPOUND": "Cc1cc(CN(Cc2ccccc2)Cc2nc3ccccc3[nH]2)c(O)c(CN(Cc2nc3ccccc3[nH]2)Cc2nc3ccccc3[nH]2)c1",
    "CLASS": "fulfilled"
  }
]

Please indicate if the recorded growth inhibition for CCOC(=O)Cc1nc2ccccc2s1 meets or exceeds 90%.
fulfilled

Please indicate if the recorded growth inhibition for Cc1cc(Cl)c(O)c(C(=O)C(=O)C(O)c2ccc3c(c2)OCO3)c1 (stereo not given) meets or exceeds 90%.
not fulfilled
